- MEASURED_ON: T1, rat PTH1R on UMR106 cells (rat, UniProt P25961 27-591)
- T1 sequence (looked up): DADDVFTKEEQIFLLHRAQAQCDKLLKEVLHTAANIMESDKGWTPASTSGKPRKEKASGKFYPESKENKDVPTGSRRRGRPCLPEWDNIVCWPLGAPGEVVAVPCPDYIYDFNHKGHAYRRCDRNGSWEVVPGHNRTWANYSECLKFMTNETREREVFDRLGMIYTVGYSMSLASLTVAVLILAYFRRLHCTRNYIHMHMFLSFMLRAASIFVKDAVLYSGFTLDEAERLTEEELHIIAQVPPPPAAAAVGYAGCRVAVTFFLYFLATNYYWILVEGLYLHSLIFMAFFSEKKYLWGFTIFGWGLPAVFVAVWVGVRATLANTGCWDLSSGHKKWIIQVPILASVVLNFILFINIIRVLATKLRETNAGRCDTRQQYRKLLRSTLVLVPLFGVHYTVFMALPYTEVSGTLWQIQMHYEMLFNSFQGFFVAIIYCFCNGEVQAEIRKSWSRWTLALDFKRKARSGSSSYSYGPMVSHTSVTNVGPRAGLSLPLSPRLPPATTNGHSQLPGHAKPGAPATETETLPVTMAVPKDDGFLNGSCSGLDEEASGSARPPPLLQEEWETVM
- ASSAY_INFO: cell-based or functional assay
OUTCOME_MEASURE: EC50 of PTH(1-34), cAMP assay, with 267 nM IgG (nM)

{"BINDER": "XPA.85.287 (antibody, V domains shown, also called Ab287) VH: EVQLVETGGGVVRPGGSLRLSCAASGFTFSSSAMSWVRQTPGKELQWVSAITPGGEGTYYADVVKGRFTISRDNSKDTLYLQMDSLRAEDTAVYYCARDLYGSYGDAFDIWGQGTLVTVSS VL: SYVLTQPPSVSVAPGQTARITCSGDKLGDRYVSWYQQKPGQSPVLVMFEDTGRPAGIPERFSGSNSGNTATLTISGTQAEDEADYYCQAWGTSWVFGGGTQLTVL", "NUMERIC_VALUE": 66.7}
{"BINDER": "XPA.85.340 (antibody, V domains shown, Light-chain-shuffled variant of XPA.85.017) VH: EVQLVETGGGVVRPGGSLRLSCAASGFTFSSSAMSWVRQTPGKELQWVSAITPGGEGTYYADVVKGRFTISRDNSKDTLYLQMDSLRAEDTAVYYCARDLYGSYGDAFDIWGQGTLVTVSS VL: SYVLTQPPSVSVAPGQTASITCSGDNLGEKFVSWYQQKAGQSPVLVIFEDNKRPSGIPERFAGSNSGNRATLTIRGTQAEDEADYYCQAWDSSWVFGGGTQLTVL", "NUMERIC_VALUE": 8.1}
{"BINDER": "XPA.85.338 (antibody, V domains shown, Light-chain-shuffled variant of XPA.85.017) VH: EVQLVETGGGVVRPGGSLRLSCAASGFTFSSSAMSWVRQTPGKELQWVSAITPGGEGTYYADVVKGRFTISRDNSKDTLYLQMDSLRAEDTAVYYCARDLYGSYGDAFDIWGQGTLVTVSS VL: SYELTQPPSVSVAPGQTATITCSGDKLGDKYASWYQQKPGQSPVLVMFENRDRPSGIPDRFSGSNSGNTATLTISGTQAMDEADYYCQAWDSSTAWVFGGGTQLTVL", "NUMERIC_VALUE": 7.86}
{"BINDER": "XPA.85.339 (antibody, V domains shown, Light-chain-shuffled variant of XPA.85.017) VH: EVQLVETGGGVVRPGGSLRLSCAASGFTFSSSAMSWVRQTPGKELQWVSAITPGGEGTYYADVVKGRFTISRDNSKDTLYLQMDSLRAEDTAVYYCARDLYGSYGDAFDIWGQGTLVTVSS VL: SYELTQPPSVSVAPGQTATITCSGDRLGDKFISWYQQKPGQSPLLVIFEDNERPSRIPERFSGSNSGNSATLTISGTQAVDEADYYCQAWDSSWVFGGGTQLTVL", "NUMERIC_VALUE": 7.9}

Values from patent US20200317817A1
